Test system: PGE2
test-method-notes: Intestinal IR, ex vivo PGE2 generation
Assay type: in vivo, mouse
Parameters: key: + indicates significant difference from Sham treated mice; − indicates not significantly different from C57B1/6 sham treated mice; +/− indicates no significant difference from either C57B1/6 mice subjected to either Sham or IR
condition-parameters: C57Bl/6 mice subjected to IR, peptide 40 μM i.v. 5 min prior to artery occlusion
Ends that are not written are not given here.
readout-label: PGE2 Production

Illustrative cases are given below, each with its answer.
In [3]: df
Out[3]:
                                  substance    readout_label  experimental_value
0  H-KNISFACNPGFFLNG-NH2 [peptide 100, 16, reference compound]  PGE2 Production                   +
1  H-KKCSYTVEAHCRDGTIEIPSCFKEHS-OH (cysteine pairing not given here) [peptide 305, 10]  PGE2 Production                 +/−
2  H-IHFYCKNKEKKCSYTVEAHCRDGTI-OH (cysteine pairing not given here) [peptide 296]  PGE2 Production                   −
3  H-IPSCFKEHSSLAFWKTDASELTPC-NH2 (cysteine pairing not given here) [peptide 322, 18]  PGE2 Production                   +

# next substance below
Param request: PGE2 Production | system PGE2 | item H-IHFYSKNKEKKSSYTVEAHSRDGTI-OH [peptide 296Cys-Ser]
−
